# target-under-test: Calmodulin-1 (Homo sapiens)
# protocol-details: calcium-bound CALM1 binders on microarrays, profiling panel, artefact control for SMM control-protein annotation, biochemical, small-molecule microarray, Cy5-labelled CALM1, plus calcium (AID 1112);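 further: score merges spot fluorescence with signal to noise from triplicate slides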
# assay-context: Cy5-CALM1 binding fluorescence, higher = more signal
measurement-type: composite z-score
// response body must contain only the number

Enquiry: Enter reported composite z-score observed with Calmodulin-1 (Homo sapiens) for `C=C(COC)/C(=C/C[C@@H](OC(=O)c1ccncc1)c1ccc(OCCO)cc1)c1cnc2ccccc2c1`
Return: -0.604

Enquiry: Enter reported composite z-score observed with Calmodulin-1 (Homo sapiens) for `CCCC[C@@H]1C[C@H]1[C@@H](NC(=O)c1cccnc1)c1ccc(-c2ccccc2)cc1`
Return: 0.742

Enquiry: Enter reported composite z-score observed with Calmodulin-1 (Homo sapiens) for `C[C@@H]1ON(c2ccc(C(=O)OC(C)(C)C)cc2)[C@H](c2ccc(Br)cc2)[C@H]1C(=O)N1C(=O)OC[C@H]1Cc1ccccc1`
Return: -0.115

Enquiry: Enter reported composite z-score observed with Calmodulin-1 (Homo sapiens) for CCOC(=CC(=O)OC)CC(O)c1cccc(Cl)c1 (stereo not drawn)
Return: 0.486

Enquiry: Enter reported composite z-score observed with Calmodulin-1 (Homo sapiens) for CC(C)CCC[C@@H](C)[C@H]1CC[C@@]2(C)C3=C(CC[C@]12C)[C@@]1(C)CC[C@H](OC(=O)c2ccc(Br)cc2)C(C)(C)C1CC3 (stereo partly drawn)
Return: -0.442

Enquiry: Enter reported composite z-score observed with Calmodulin-1 (Homo sapiens) for C=CC1c2cc(O)c(OC)cc2CCN1Cc1sc2ccccc2c1Cl (stereo not drawn)
Return: 0.237

Enquiry: Enter reported composite z-score observed with Calmodulin-1 (Homo sapiens) for `C[N+](C)(C)CCCC[C@@H]1NC(=O)[C@@H]2C[C@H](C(=O)O)[C@H](c3ccc(O)cc3)N2C1=O`
Return: 0.305

Enquiry: Enter reported composite z-score observed with Calmodulin-1 (Homo sapiens) for `O=C(O)[C@]1(Cc2ccccc2)N=C(c2ccc(OCCCO)cc2)O[C@@H]1c1ccccc1`
Return: 0.206

----------
# System: XIP peptide (Xip251-270) binding
# protocol-details: small-molecule binders of XIP peptide, primary screen, biochemical, small-molecule microarray, fluorescence 635/667 nm, 0.1 µg/mL protein (AID 1182)
# assay-context: fluorescent protein binding, 635 nm, higher = more signal, called active from +8 up or from −8 down
The source made the active and inactive calls.
measurement-type: composite z-score

Enquiry: Find the recorded composite z-score belonging to `O=C(O)[C@H](Cc1ccccc1)n1cc(-c2ccccn2)nn1` and report it.
Return: 0.355 (inactive)

Enquiry: Find the recorded composite z-score belonging to COc1ccc(NN2C(C(O)c3ccco3)C=CC3C(=O)N(C4CCCCC4)C(=O)C32)cc1 (stereo not given) and report it.
Return: 0.902 (inactive)

Enquiry: Find the recorded composite z-score belonging to `O=C(O)[C@H]1C[C@H]2C(=O)N3CCC[C@H]3C(=O)N2[C@H]1c1cccc(OCCO)c1` and report it.
Return: 0.25 (inactive)

Enquiry: Find the recorded composite z-score belonging to `C=CCN1C(=O)[C@@]2(CCC(=O)OC(C)(C)C)N=C(c3ccc(OCCCO)cc3)O[C@H]2c2ccccc21` and report it.
Return: 0.841 (inactive)

Enquiry: Find the recorded composite z-score belonging to CCCCC(CC)C(O)C1C=CC2C(=O)N(c3ccccc3)C(=O)C2N1Nc1ccc([N+](=O)[O-])cc1 (stereo not given) and report it.
Return: 0.389 (inactive)

Enquiry: Find the recorded composite z-score belonging to CC(C)(C)N1CC=CC23O[C@@H]4C=CCOC(=O)[C@@H]4[C@H]2C(=O)N(CCCO)[C@@H]3C1=O (stereo not given in full) and report it.
Return: -0.466 (inactive)

Enquiry: Find the recorded composite z-score belonging to `C=CCN1Cc2ccccc2C[C@@]2(N=C(c3ccc(OCCCO)cc3)O[C@H]2c2ccccc2)C1=O` and report it.
Return: 0.247 (inactive)

Enquiry: Find the recorded composite z-score belonging to CCOc1cc(C(O)C2C=CC3C(=O)N(C4CCCCC4)C(=O)C3N2Nc2ccc(OC)cc2)ccc1O (stereo not given) and report it.
Return: 0.0699 (inactive)

Enquiry: Find the recorded composite z-score belonging to `COCCOC(=O)N1C(=O)[C@@]2(c3cc(C#Cc4ccc(OC)cc4)ccc31)[C@H](C(=O)N1CCN(c3ncccn3)CC1)[C@H]1C(=O)O[C@H](c3ccccc3)[C@H](c3ccccc3)N1[C@@H]2c1ccccc1OCCO` and report it.
Return: -0.148 (inactive)

Enquiry: Find the recorded composite z-score belonging to `C=CCOC(=O)[C@@H]1[C@H]2C(=O)O[C@H](c3ccccc3)[C@H](c3ccccc3)N2[C@H](c2ccc(OCCOC(=O)[C@H]3C[C@H]4C(=O)N[C@@H](CC(C)C)C(=O)N4[C@H]3c3ccc(O)cc3)cc2)[C@@]12C(=O)Nc1ccc(I)cc12` and report it.
Return: 0.234 (inactive)

Enquiry: Find the recorded composite z-score belonging to `Cc1ccc(S[C@]2(C(=O)NC3CC3)CC(=O)N(Cc3ccccc3Cl)[C@@H]2c2ccc(CO)cc2I)cc1` and report it.
Return: 0.98 (inactive)

Enquiry: Find the recorded composite z-score belonging to `C=C(CCCC)/C(=C/C[C@@H](OC(=O)c1ccncc1)c1cccc(OCCO)c1)c1cnc2ccccc2c1` and report it.
Return: 0.389 (inactive)

Enquiry: Find the recorded composite z-score belonging to `CCCC[C@@H]1C[C@H]1[C@@H](NC(=O)c1ccccc1)c1ccc(Cl)cc1` and report it.
Return: -0.778 (inactive)

Enquiry: Find the recorded composite z-score belonging to O=C1OCC=C[C@H]2OC34C=CCN(Cn5nnc6ccccc65)C(=O)[C@H]3N(CCCCCCO)C(=O)[C@@H]4[C@@H]12 (stereo not given in full) and report it.
Return: -0.231 (inactive)

Enquiry: Find the recorded composite z-score belonging to CCCCN1CC=CC23O[C@@H]4/C=C\CCC(C)OC(=O)C4[C@H]2C(=O)N(CCCCCCO)[C@@H]3C1=O (stereo not given in full) and report it.
Return: 0.879 (inactive)

----------
# protocol-details: binders of probe aHhip on microarray, primary screen, stem cell growth factor project, biochemical, small-molecule microarray, fluorescence 635/667 (AID 1087);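 further: score merges spot fluorescence at 667nm with spot signal to noise ratio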
# assay-context: higher = more signal
measurement-type: composite z-score
// response body must contain only the number

Enquiry: Find the recorded composite z-score belonging to `COc1ccc([Si](C)(C)[C@H]2[C@H](CCn3cc([C@H](O)c4ccccc4)nn3)O[C@@]3(C(=O)N(Cc4ccc(N5CCOC5=O)cc4)c4ccccc43)[C@@H]2C)cc1` and report it.
Return: -0.236

Enquiry: Find the recorded composite z-score belonging to `CC(C)(C)OC(=O)CC[C@]1(C(=O)N2CCOCC2)N=C(c2ccc(OCCCO)cc2)O[C@H]1c1ccccc1` and report it.
Return: 0.0695

Enquiry: Find the recorded composite z-score belonging to `C=CCN1C(=O)[C@@]2(O[C@@H](CCn3cc([C@H](O)c4ccccc4)nn3)[C@H]([Si](C)(C)c3ccc(OC)cc3)[C@H]2C)c2ccccc21` and report it.
Return: -0.289

----------
# protocol-details: MM1S cell viability effects, profiling panel, calcein-AM fluorescence, 48 h, basal (AID 1165);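 further: viability of MM1S multiple myeloma cells under basal unstimulated conditions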
# assay-context: higher = more signal
measurement-type: z-score
// response body must contain only the number

Enquiry: Find the recorded z-score belonging to `NCCCCCCNC(=O)[C@H]1C[C@H]2C(=O)N[C@@H](Cc3ccccc3)C(=O)N2[C@H]1c1ccc(O)cc1` and report it.
Return: 0.675

Enquiry: Find the recorded z-score belonging to `COCCOC(=O)N1C(=O)[C@@]2(c3cc(C#CCNC(N)=O)ccc31)[C@H](C(=O)N1CCCCCCC1)[C@H]1C(=O)O[C@H](c3ccccc3)[C@H](c3ccccc3)N1[C@@H]2c1ccc(O)cc1` and report it.
Return: -0.787

Enquiry: Find the recorded z-score belonging to CC[C@@H]1[C@H]2C3C(=O)N(CC)C(=O)C3CC(=O)[C@H]2[C@H](c2ccc(C)cc2)N1S(=O)(=O)c1ccc(C)cc1 (some centres undefined) and report it.
Return: 0.453

Enquiry: Find the recorded z-score belonging to COc1cc(CO)cc(I)c1O[C@H]1C=C(C(=O)NCCO)C[C@@H](N(Cc2ccc(F)cc2)C(=O)C2CCCO2)[C@@H]1O (some centres undefined) and report it.
Return: 0.87

Enquiry: Find the recorded z-score belonging to `COc1cc(CO)cc(I)c1O[C@H]1C=C(C(=O)NCCO)C[C@@H](NCc2ccccc2F)[C@@H]1O` and report it.
Return: 0.0067

Enquiry: Find the recorded z-score belonging to CC(=O)n1cc(C(O)C2C=CC3C(=O)N(c4ccccc4)C(=O)C3N2Nc2ccccc2)c2ccccc21 (centres undefined) and report it.
Return: -1.06

Enquiry: Find the recorded z-score belonging to `Cc1ccc(S[C@]2(C(=O)NCC(C)C)CC(=O)N(Cc3ccccc3Cl)[C@@H]2c2ccc(CO)cc2I)cc1` and report it.
Return: -1.94

Enquiry: Find the recorded z-score belonging to `O=C(NC1CC1)[C@@H]1c2ccccc2C(=O)N(Cc2ccccc2)[C@H]1c1ccc(CO)cc1` and report it.
Return: 0.293

Enquiry: Find the recorded z-score belonging to COc1cc2c(cc1O)C(C)N(Cc1cc3c(cc1Br)OCO3)CC2 (centres undefined) and report it.
Return: -0.981

Enquiry: Find the recorded z-score belonging to `C=C(COC)/C(=C/C[C@@H](OC(=O)c1ccncc1)c1cccc(OCCO)c1)c1cnc2ccccc2c1` and report it.
Return: -2.17

Enquiry: Find the recorded z-score belonging to `CCOC(=O)C[C@H]1[C@H](OC(=O)c2ccc(C(=O)c3ccccc3)cc2)[C@@H](NC(=O)c2ccc3ccccc3c2)c2cc(OCCCO)ccc2N1C(=O)c1ccccc1` and report it.
Return: 0.0736

Enquiry: Find the recorded z-score belonging to `COCCCNC(=O)[C@@H]1c2ccccc2C(=O)N(Cc2ccccc2C(F)(F)F)[C@H]1c1ccc(CO)cc1` and report it.
Return: 0.7

Enquiry: Find the recorded z-score belonging to `CN(C)CCCNC(=O)[C@@H]1c2ccccc2C(=O)N(CC23CC4CC(CC(C4)C2)C3)[C@H]1c1ccc(CO)cc1` and report it.
Return: -3.75

Enquiry: Find the recorded z-score belonging to `Cc1c(NC(=O)/C(C#N)=C/C=C/c2ccc(N(C)C)cc2)c(=O)n(-c2ccccc2)n1C` and report it.
Return: 0.232

Enquiry: Find the recorded z-score belonging to C=C1C2CC3C(=C4C(CO[C@@H]4[C@H]4CCCN4S(=O)(=O)c4ccccc4[N+](=O)[O-])C4C(=O)N(C)C(=O)C34)CC2C(=O)N1C (some centres undefined) and report it.
Return: -3.31

Enquiry: Find the recorded z-score belonging to `COCCCNC(=O)[C@]1(Cc2ccccc2N=[N+]=[N-])N=C(c2ccc(OCCCO)cc2)O[C@@H]1c1ccccc1N=[N+]=[N-]` and report it.
Return: -3.52

Enquiry: Find the recorded z-score belonging to `COCCOC(=O)N1C(=O)[C@@]2(c3cc(C#CC4(O)CCCCCC4)ccc31)[C@H](c1ccccc1OCCO)N1[C@H](c3ccccc3)[C@H](c3ccccc3)OC(=O)[C@H]1[C@@H]2C(N)=O` and report it.
Return: -3.43

Enquiry: Find the recorded z-score belonging to `CCOC(=O)C[C@H]1[C@H](OC(=O)c2ccc(-c3ccccc3)cc2)[C@@H](NC(=O)c2ccc3ccccc3c2)c2cc(OCCCO)ccc2N1C(=O)c1ccc2ccccc2n1` and report it.
Return: 0.477

Enquiry: Find the recorded z-score belonging to `COc1ccc([Si](C)(C)[C@@H]2[C@@H](CCO)O[C@]3(C(=O)N(Cc4cccc(N5C(=O)c6ccccc6Oc6ccccc65)c4)c4ccccc43)[C@H]2C)cc1` and report it.
Return: -1.89

Enquiry: Find the recorded z-score belonging to `COCC(=C=CC[C@H](O)c1cccc(OCCO)c1)C[C@H](O)c1ccccn1` and report it.
Return: 0.0467

Enquiry: Find the recorded z-score belonging to COc1ccc(NN2C(C(O)c3ccccn3)C=CC3C(=O)N(C4CCCCC4)C(=O)C32)cc1 (centres undefined) and report it.
Return: -1.3

Enquiry: Find the recorded z-score belonging to `CN(C)CCCCNC(=O)[C@H]1C[C@H]2C(=O)N[C@@H](CCCCN(C)C)C(=O)N2[C@H]1c1cccc(OCCO)c1` and report it.
Return: -0.0355

Enquiry: Find the recorded z-score belonging to `CN(C)CCCNC(=O)[C@@]1(c2ccc([N+](=O)[O-])cc2)CC(=O)N(CC23CC4CC(CC(C4)C2)C3)[C@@H]1c1ccc(CO)cc1` and report it.
Return: -3.8

Enquiry: Find the recorded z-score belonging to `CCOC(=O)C1=CC[C@@H](c2ccccc2)N(S(=O)(=O)c2ccc(C)cc2)C1` and report it.
Return: -1.22

Enquiry: Find the recorded z-score belonging to `COCCCNC(=O)[C@]1(CCC(=O)OC(C)(C)C)N=C(c2ccc(OCCCO)cc2)O[C@@H]1c1ccccc1` and report it.
Return: 0.326

Enquiry: Find the recorded z-score belonging to `NC(=O)NCC#Cc1ccc2c(c1)[C@]1(C(=O)N2)[C@H](C(=O)Nc2nc3ccccc3s2)[C@H]2C(=O)O[C@H](c3ccccc3)[C@H](c3ccccc3)N2[C@@H]1c1ccc(O)cc1` and report it.
Return: -0.614

Enquiry: Find the recorded z-score belonging to CN1C(=O)C2C=CC(C(O)c3c(F)cccc3Cl)N(Nc3ccccc3)C2C1=O (centres undefined) and report it.
Return: 0.161

Enquiry: Find the recorded z-score belonging to `C=C(CCCC)/C(=C/C[C@@H](OC(=O)c1ccncc1)c1cccc(OCCO)c1)c1cnc2ccccc2c1` and report it.
Return: -2.65

Enquiry: Find the recorded z-score belonging to `CCC[C@@H]1C[C@@]1(CCC)[C@@H](NP(=O)(c1ccccc1)c1ccccc1)c1ccc(Cl)cc1` and report it.
Return: -1.45
